Test system: diabetes mellitus patients
Experiment: Acute kidney injury
Assay type: in vivo, human
Conditions: Secondary Diagnosis with 3919 Outcomes; multivariate; metformin as reference
measure name: Association with AKI, Adjusted (95% CI)

// below: answered molecules
INSERT INTO measurements (mol_smiles, measurement_target, recorded_measurement) VALUES
  ('CN(C)C(=N)N=C(N)N', 'diabetes mellitus patients', '1.0 (Reference)'),
  ('OC[C@H]1O[C@@H](c2ccc(F)c(Cc3cc4ccccc4s3)c2)[C@H](O)[C@@H](O)[C@@H]1O', 'diabetes mellitus patients', '0.95 (0.62–1.45)'),
  ('OC[C@H]1O[C@@H](c2ccc(Cl)c(Cc3ccc(O[C@H]4CCOC4)cc3)c2)[C@H](O)[C@@H](O)[C@@H]1O', 'diabetes mellitus patients', '0.85 (0.67–1.18)'),
  ('CC1=C(C(=O)O)N2C(=O)[C@@H](NC(=O)[C@H](N)c3ccccc3)[C@H]2SC1', 'diabetes mellitus patients', '1.82 (1.31–2.25)');

Challenge: Look up Association with AKI, Adjusted (95% CI): CC#CCn1c(N2CCC[C@@H](N)C2)nc2c1c(=O)n(Cc1nc(C)c3ccccc3n1)c(=O)n2C
Response given: 1.23 (0.73–1.65)

Challenge: Also CC1(C)S[C@@H]2[C@H](NC(=O)[C@H](N)c3ccc(O)cc3)C(=O)N2[C@H]1C(=O)O , if possible.
Response given: 1.34 (1.07–1.82)

Challenge: Also Cc1ccc([C@@H]2O[C@H](CO)[C@@H](O)[C@H](O)[C@H]2O)cc1Cc1ccc(-c2ccc(F)cc2)s1 , if possible.
Response given: 1.06 (0.91–1.42)

* * *

Conditions: normal mice, oral gavage, 3mg/kg; Liver; 3h
measure name: Drug concentration, time course
API note: the answer field is a bare number with no unit suffix.

// below: answered compounds
INSERT INTO assay_data (compound, recorded_measurement) VALUES
  ('N#C[C@@H]1CCCN1C(=O)CNC12CC3CC(CC(O)(C3)C1)C2 [Vildagliptin, vildagliptin]', 8300),
  ('CC#CCn1c(N2CCC[C@@H](N)C2)nc2c1c(=O)n(Cc1nc(C)c3ccccc3n1)c(=O)n2C [Linagliptin, linagliptin]', 7500),
  ('CC(C)Cc1ccc(C(C)C(=O)O)cc1 (stereo not drawn) [Ibuprofen, ibuprofen]', 9500);

Challenge: Look up Drug concentration, time course: OC[C@H]1O[C@@H](c2ccc(Cl)c(Cc3ccc(O[C@H]4CCOC4)cc3)c2)[C@H](O)[C@@H](O)[C@@H]1O [Jardiance]
Response given: 1100

* * *

Conditions: normal mice, oral gavage, 3mg/kg; Liver; 18h
measure name: Drug concentration, time course
API note: the answer field is a bare number with no unit suffix.

// below: answered compounds
INSERT INTO results (compound, measure_name, recorded_measurement) VALUES
  ('CC(C)Cc1ccc(C(C)C(=O)O)cc1 (stereo not drawn) [Ibuprofen, ibuprofen]', 'Drug concentration, time course', 0),
  ('CC1(C)S[C@@H]2[C@H](NC(=O)[C@H](N)c3ccc(O)cc3)C(=O)N2[C@H]1C(=O)O [Amoxicillin, amoxicillin]', 'Drug concentration, time course', 0);

Now consider the entry below.
Challenge: Look up Drug concentration, time course: Cc1ccc([C@@H]2O[C@H](CO)[C@@H](O)[C@H](O)[C@H]2O)cc1Cc1ccc(-c2ccc(F)cc2)s1 [Canagliflozin, canagliflozin]
Response given: 0
